Parameter: ECL signal. Scope: all listed entries.
# assayed_target: T1, Recombinant Human DLL4 (human, UniProt Q9NR61 27-524)
# T1 construct: also called delta-like protein 4; rHuman DLL4
# protocol: ECL (MSD) multispot binding assay, DLL4 spotted on plate, Fab in solution

# binder, ECL signal
records = [
    ("Fab VH1-46_IGHD6-6*01_IGHJ1*01 S102A/S103P/S104F/H111F (APFF) & L6_IGKJ1*01 W94M (Fab, V domains shown, Fab from E. coli; VH in Plasmid A (CH1, His6 and Flag tags), VL in Plasmid C (kappa CL); also called APFF & W94M) VH: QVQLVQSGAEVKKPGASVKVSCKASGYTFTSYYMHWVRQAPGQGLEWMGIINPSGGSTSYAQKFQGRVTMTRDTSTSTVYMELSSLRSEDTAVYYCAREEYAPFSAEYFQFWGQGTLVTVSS VL: EIVLTQSPATLSLSPGERATLSCRASQSVSSYLAWYQQKPGQAPRLLIYDASNRATGIPARFSGSGSGTDFTLTISSLEPEDFAVYYCQQRSNMPPWTFGQGTKVEIKR", 33800),
    ("Fab VH1-46_IGHD6-6*01_IGHJ1*01 S102A/S103P/S104F/H111F (APFF) & L6_IGKJ1*01 S92T (Fab, V domains shown, Fab from E. coli; VH in Plasmid A (CH1, His6 and Flag tags), VL in Plasmid C (kappa CL); also called APFF & S92T) VH: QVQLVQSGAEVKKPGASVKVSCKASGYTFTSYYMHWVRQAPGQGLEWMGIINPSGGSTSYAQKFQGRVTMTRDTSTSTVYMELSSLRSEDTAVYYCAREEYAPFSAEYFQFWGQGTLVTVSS VL: EIVLTQSPATLSLSPGERATLSCRASQSVSSYLAWYQQKPGQAPRLLIYDASNRATGIPARFSGSGSGTDFTLTISSLEPEDFAVYYCQQRTNWPPWTFGQGTKVEIKR", 54100),
    ("Fab VH1-46_IGHD6-6*01_IGHJ1*01 S102A/S103P/S104F/H111F (APFF) & L6_IGKJ1*01 W94S (Fab, V domains shown, Fab from E. coli; VH in Plasmid A (CH1, His6 and Flag tags), VL in Plasmid C (kappa CL); also called APFF & W94S) VH: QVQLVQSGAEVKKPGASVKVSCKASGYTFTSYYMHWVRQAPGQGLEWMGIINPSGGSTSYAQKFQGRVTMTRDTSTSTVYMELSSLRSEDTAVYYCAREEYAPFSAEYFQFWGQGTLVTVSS VL: EIVLTQSPATLSLSPGERATLSCRASQSVSSYLAWYQQKPGQAPRLLIYDASNRATGIPARFSGSGSGTDFTLTISSLEPEDFAVYYCQQRSNSPPWTFGQGTKVEIKR", 109000),
]
